Can you tell me IC50 for the items I'm about to list?
Target: Gastrin/cholecystokinin type B receptor (Homo sapiens)
Sequence (P32239 whole entry): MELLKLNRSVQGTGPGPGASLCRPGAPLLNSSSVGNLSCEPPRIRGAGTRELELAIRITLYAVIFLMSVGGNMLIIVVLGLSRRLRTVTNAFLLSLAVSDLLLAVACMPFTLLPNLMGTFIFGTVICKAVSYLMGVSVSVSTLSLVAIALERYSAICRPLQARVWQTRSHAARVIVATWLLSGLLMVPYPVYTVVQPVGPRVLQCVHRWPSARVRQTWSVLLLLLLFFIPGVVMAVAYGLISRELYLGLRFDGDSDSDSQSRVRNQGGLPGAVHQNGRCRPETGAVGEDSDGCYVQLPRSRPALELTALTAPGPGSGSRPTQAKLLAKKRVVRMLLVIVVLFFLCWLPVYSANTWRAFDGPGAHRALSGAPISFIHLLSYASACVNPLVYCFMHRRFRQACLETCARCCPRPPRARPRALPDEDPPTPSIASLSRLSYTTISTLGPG
Test: Displacement of [125I]-CCK-8 from human CCK2R expressed in human 1321N1 cell membranes after 2 hrs by SPA assay
Numbered stars: 1 amine (or outer) side, 2 acyl side, 3 side chain; on linkers, the order of the positions; unused ones are H or OH. Square brackets hold non-standard residues; d marks the D form. Peptide text beside a SMILES is read from it. * marks the point of attachment. Phe(4-CH2SO3H) = N[C@@H](Cc1ccc(CS(=O)(=O)O)cc1)C(=O)O; sY = N[C@@H](Cc1ccc(OS(=O)(=O)O)cc1)C(=O)O; C18 diacid = O=C(O)CCCCCCCCCCCCCCCCC(=O)*; NMe1Nal = CN[C@@H](Cc1cccc2ccccc12)C(=O)O; γGlu = O=C(O)[C@H](CCC(=O)[*:2])N[*:1]; Glutaryl = O=C(CCCC(=O)[*:2])[*:1]; NMeF = CN[C@@H](Cc1ccccc1)C(=O)O; NMeD = CN[C@@H](CC(=O)O)C(=O)O; dNMeD = CN[C@H](CC(=O)O)C(=O)O; Nle = CCCC[C@H](N)C(=O)O; Dap = NC[C@H](N)C(=O)O; AEEA = NCCOCCOCC(=O)O
Supply the numeric figure in nM, leaving out any unit text.

IC50 recorded for this molecule, CCCC[C@H](NC(=O)[C@H](Cc1c[nH]c2ccccc12)NC(=O)CNC(=O)[C@H](CC(C)C)NC(=O)[C@H](Cc1ccc(CS(=O)(=O)O)cc1)NC(=O)[C@H](CC(=O)O)NC(=O)COCCOCCNC(=O)COCCOCCNC(=O)CC[C@H](NC(=O)CCCCCCCCCCCCCCCCC(=O)O)C(=O)O)C(=O)N[C@@H](CC(=O)O)C(=O)N[C@@H](Cc1ccccc1)C(N)=O ({C18 diacid-γGlu-AEEA-AEEA}-D[Phe(4-CH2SO3H)]LGW[Nle]DF-NH2) , is 0.891

Measured IC50 of CCCC[C@H](NC(=O)[C@H](Cc1c[nH]c2ccccc12)NC(=O)[C@@H]1CCCN1C(=O)[C@H](CCCC)NC(=O)[C@H](Cc1ccc(OS(=O)(=O)O)cc1)NC(=O)[C@H](CC(=O)O)NC(=O)COCCOCCNC(=O)COCCOCCNC(=O)CC[C@H](NC(=O)CCCCCCCCCCCCCCCCC(=O)O)C(=O)O)C(=O)N[C@@H](CC(=O)O)C(=O)N[C@@H](Cc1ccccc1)C(N)=O ({C18 diacid-γGlu-AEEA-AEEA}-D[sY][Nle]PW[Nle]DF-NH2) : 0.589

# IC50 of CCCC[C@H](NC(=O)[C@H](Cc1ccc(CS(=O)(=O)O)cc1)NC(=O)[C@H](CC(=O)O)NC(=O)COCCOCCNC(=O)COCCOCCNC(=O)CC[C@H](NC(=O)CCCCCCCCCCCCCCCCC(=O)O)C(=O)O)C(=O)NCC(=O)N[C@@H](Cc1c[nH]c2ccccc12)C(=O)N[C@@H](CCCC)C(=O)N(C)[C@@H](CC(=O)O)C(=O)N(C)[C@@H](Cc1ccccc1)C(N)=O ({C18 diacid-γGlu-AEEA-AEEA}-D[Phe(4-CH2SO3H)][Nle]GW[Nle][NMeD][NMeF]-NH2) = 8710

Sample CCCC[C@H](NC(=O)[C@H](Cc1c[nH]c2ccccc12)NC(=O)CNC(=O)[C@H](CC(C)C)NC(=O)[C@H](Cc1ccc(OS(=O)(=O)O)cc1)NC(=O)[C@H](CC(=O)O)NC(=O)COCCOCCNC(=O)COCCOCCNC(=O)CC[C@H](NC(=O)CCCCCCCCCCCCCCCCC(=O)O)C(=O)O)C(=O)N(C)[C@H](CC(=O)O)C(=O)N(C)[C@@H](Cc1cccc2ccccc12)C(N)=O ({C18 diacid-γGlu-AEEA-AEEA}-D[sY]LGW[Nle][dNMeD][NMe1Nal]-NH2) ; IC50 observed: 2040

Lab book: IC50 of CCCC[C@H](NC(=O)[C@H](CNC(=O)CCCC(=O)O)NC(=O)[C@H](CC(=O)O)NC(=O)COCCOCCNC(=O)COCCOCCNC(=O)CC[C@H](NC(=O)CCCCCCCCCCCCCCCCC(=O)O)C(=O)O)C(=O)NCC(=O)N[C@@H](Cc1c[nH]c2ccccc12)C(=O)N[C@@H](CCCC)C(=O)N[C@@H](CC(=O)O)C(=O)N[C@@H](Cc1ccccc1)C(N)=O ({C18 diacid-γGlu-AEEA-AEEA}-D[Dap](Glutaryl)[Nle]GW[Nle]DF-NH2) noted as 5.75

The molecule listed as "CCCC[C@H](NC(=O)[C@H](Cc1ccc(O)cc1)NC(=O)[C@H](CC(=O)O)NC(=O)COCCOCCNC(=O)COCCOCCNC(=O)CC[C@H](NC(=O)CCCCCCCCCCCCCCCCC(=O)O)C(=O)O)C(=O)NCC(=O)N[C@@H](Cc1c[nH]c2ccccc12)C(=O)N[C@@H](CCCCNC(=O)Nc1ccccc1C)C(=O)N[C@@H](CC(=O)O)C(=O)N(C)[C@@H](Cc1ccccc1)C(N)=O" shows IC50 equal to 759

CCCC[C@H](NC(=O)[C@H](Cc1c[nH]c2ccccc12)NC(=O)CNC(=O)[C@H](CCC(=O)O)NC(=O)[C@H](Cc1ccc(OS(=O)(=O)O)cc1)NC(=O)[C@H](CC(=O)O)NC(=O)COCCOCCNC(=O)COCCOCCNC(=O)CC[C@H](NC(=O)CCCCCCCCCCCCCCCCC(=O)O)C(=O)O)C(=O)N[C@@H](CC(=O)O)C(=O)N[C@@H](Cc1ccccc1)C(N)=O ({C18 diacid-γGlu-AEEA-AEEA}-D[sY]EGW[Nle]DF-NH2) yielded IC50 of 0.158

Consider CCCC[C@H](NC(=O)[C@H](Cc1ccc(OS(=O)(=O)O)cc1)NC(=O)[C@H](CC(=O)O)NC(=O)COCCOCCNC(=O)COCCOCCNC(=O)CC[C@H](NC(=O)CCCCCCCCCCCCCCCCC(=O)O)C(=O)O)C(=O)NCC(=O)N[C@@H](Cc1c[nH]c2ccccc12)C(=O)N[C@H](C(=O)N[C@@H](CC(=O)O)C(=O)N[C@@H](Cc1ccccc1)C(N)=O)[C@@H](C)CC ({C18 diacid-γGlu-AEEA-AEEA}-D[sY][Nle]GWIDF-NH2) . Its measured IC50 is 2.14

Numbers sourced from ChEMBL document CHEMBL4368907.
